Data origin: patent US12195427B2

Could you please report measured d(O4,H2) for the items listed next?
Molecular target: MASP-2 CCP2-SP (Homo sapiens (Human))
Assay: MASP-2 co-crystallization, X-ray crystallography and structure analysis (H-bonds, van der Waals contacts)
Parameters: unit not given beside the values
Conditions: Table A5-1 pharmacophore: distance between elements, S2/S1 region

List reported d(O4,H2) for each of these compounds:
1. C[C@H](NC(=O)[C@H]1C[C@@H](c2ccccc2)CCN1)C(=O)NCc1cc(Cl)ccc1O.Cl [1078_7]
2. C[C@H](NC(=O)[C@H]1C[C@@H](c2ccccc2)CCN1)C(=O)NCc1cc(Cl)ccc1O.Cl [1078_1]
3. C[C@H](NC(=O)[C@H]1C[C@@H](c2ccccc2)CCN1)C(=O)NCc1cc(Cl)ccc1O.Cl [1078_14]
4. Cc1cc(Cl)cc(CNC(=O)[C@H](C)NC(=O)[C@H]2C[C@H](Cc3ccccc3)CN2)c1O

[0.97, 0.97, 0.97, 0.98]

---

Target: MASP-2 CCP2-SP (Homo sapiens (Human))
Experiment: MASP-2 co-crystallization, X-ray crystallography and structure analysis (H-bonds, van der Waals contacts)
Details: Table A4-1; element CA5
Excerpt: This example illustrates the preparation of recombinant MASP-2 protein, based on UniProt O00187, human mannan-binding lectin serine protease 2. Expression constructs for human MASP-2 CCP2-SP and CCP2-SP-6HIS were generated for recombinant expression in E. coli cells. […]
Could you please report measured Ligand-pharmacophore element distance, pharmacophore element CA5 for the items listed next?

>  <Molecule>
Cc1nc(N)ccc1CNC(=O)C(C)NC(=O)C1CC(c2cccc3ccccc23)CCN1.Cl.Cl (stereo not drawn) [1297_6]

>  <Assay Value>
0

$$$$
>  <Molecule>
C[C@H](NC(=O)[C@H]1C[C@@H](c2ccccc2)CCN1)C(=O)NCc1cc(Cl)ccc1O.Cl [1078_2]

>  <Assay Value>
0

$$$$
>  <Molecule>
C[C@H](NC(=O)[C@H](N)CCc1cc(Cl)cc(Cl)c1)C(=O)NCc1ccc(C(=N)N)cc1

>  <Assay Value>
0

$$$$
>  <Molecule>
C[C@H](NC(=O)[C@H]1C[C@@H](c2ccccc2)CCN1)C(=O)NCc1cc(Cl)ccc1O.Cl [1078_8]

>  <Assay Value>
0

$$$$
>  <Molecule>
C[C@H](NC(=O)[C@H](N)C1Cc2ccccc2C1)C(=O)NCc1ccc2c(N)nccc2c1.Cl.Cl [1088_A]

>  <Assay Value>
0.39

$$$$

List reported Ligand-pharmacophore element distance, pharmacophore element CA5 for each of these molecules:
1. C[C@H](NC(=O)[C@@H](CCc1ccccc1)NCc1ccc(N2CCOCC2)cc1)C(=O)NCc1ccc(C(=N)N)cc1
2. C[C@H](NC(=O)[C@H]1C[C@H](c2ccccc2)CN1)C(=O)NCc1ccc2c(N)nccc2c1
3. CC(=O)Nc1ccc(CCNC(CCc2ccccc2)C(=O)NC(C)C(=O)NCc2ccc(C(=N)N)cc2)cc1.Cl.Cl (stereo not drawn) [1345_2]
4. CC(NC(=O)C1CC(Cc2ccccc2)CN1)C(=O)NCc1cnc2c(c1)c(Cl)cn2C.Cl.Cl (mixture of isomers) [1450_A]
5. Cc1nc(N)ccc1CNC(=O)[C@H](C)NC(=O)[C@H]1C[C@H](Cc2ccc3ccccc3c2)CN1
6. O=c1oc(-c2ccccc2[N+](=O)[O-])nc2ccccc12
7. C[C@H](NC(=O)[C@H]1C[C@@H](c2ccccc2)CCN1)C(=O)NCc1cc(Cl)ccc1O.Cl [1078_9]

[0, 0.91, 0, 0, 0, 0, 0]

---

Target: MASP-2 CCP2-SP (Homo sapiens (Human), UniProt O00187)
Sequence (O00187 445-686): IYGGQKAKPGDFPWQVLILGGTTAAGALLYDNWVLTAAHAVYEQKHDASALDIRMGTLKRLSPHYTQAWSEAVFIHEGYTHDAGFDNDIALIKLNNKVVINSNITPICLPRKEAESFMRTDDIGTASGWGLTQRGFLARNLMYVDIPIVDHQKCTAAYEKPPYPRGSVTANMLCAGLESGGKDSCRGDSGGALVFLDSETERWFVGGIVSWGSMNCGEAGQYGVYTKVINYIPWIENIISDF
Sequence (O00187 364-432 partner): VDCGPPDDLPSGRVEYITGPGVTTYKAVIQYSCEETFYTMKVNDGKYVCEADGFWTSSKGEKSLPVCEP
Assay: MASP-2 co-crystallization, X-ray crystallography and structure analysis (H-bonds, van der Waals contacts);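 for Ligand-pharmacophore element distance, pharmacophore element C3: distance from averaged pharmacophore element to bound ligand; missing value means element absent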
Conditions: Table A4-1; element C3
From the text: This example illustrates the preparation of recombinant MASP-2 protein, based on UniProt O00187, human mannan-binding lectin serine protease 2. Expression constructs for human MASP-2 CCP2-SP and CCP2-SP-6HIS were generated for recombinant expression in E. coli cells. […]
Counter-ions that a name gives are not always drawn.
Could you please report measured Ligand-pharmacophore element distance, pharmacophore element C3 for the items listed next?
Give bare numbers.

See these solved cases before continuing.
>  <Molecule>
C[C@H](NC(=O)[C@H]1C[C@@H](c2ccccc2)CN1)C(=O)NCc1ccc2c(N)nccc2c1.Cl.Cl [1089_B]

>  <Assay Value>
0

$$$$
>  <Molecule>
C[C@H](NC(=O)[C@H]1C[C@@H](c2ccccc2)CCN1)C(=O)NCc1cc(Cl)ccc1O.Cl [1078_16]

>  <Assay Value>
0

$$$$
>  <Molecule>
Cc1nc(N)ccc1CNC(=O)[C@H](C)NC(=O)[C@H]1C[C@H](Cc2cc(Cl)cc(Cl)c2)CN1 [compound 1435, Dihydrochloride]

>  <Assay Value>
0.15

$$$$

List reported Ligand-pharmacophore element distance, pharmacophore element C3 for each of these molecules:
1. C[C@H](NC(=O)[C@H]1C[C@@H](c2ccccc2)CCN1)C(=O)NCc1cc(Cl)ccc1O.Cl [1078_14]
2. Cc1nc(N)ccc1CNC(=O)C(C)NC(=O)C1CC(c2cccc3ccccc23)CCN1.Cl.Cl (centres unmarked) [1297_3]
3. C[C@H](NC(=O)[C@H](N)CCc1ccccc1)C(=O)NCc1ccc(C(=N)N)cc1 [compound 1024]

0
0.23
0

---

Biological target: MASP-2 CCP2-SP (Homo sapiens (Human), UniProt O00187)
Test: MASP-2 co-crystallization, X-ray crystallography and structure analysis (H-bonds, van der Waals contacts)
Design: unit not given beside the values
Details: Table A5-2 pharmacophore distance, S3/S4 region
Measured Attribute: d(N2,C4)
One number for each entry.

List reported d(N2,C4) for each of these compounds:
1. Cc1nc(N)ccc1CNC(=O)[C@H](C)NC(=O)[C@H]1C[C@H](Cc2cccc(Cl)c2)CN1.Cl.Cl [1328_2]
2. C[C@H](NC(=O)[C@@H](CCc1ccccc1)NCc1ccc(N2CCOCC2)cc1)C(=O)NCc1ccc(C(=N)N)cc1
3. Cc1nc(N)ccc1CNC(=O)[C@H](C)NC(=O)[C@H]1C[C@H](Cc2cccc(Cl)c2)CN1.Cl.Cl [1328_3]
4. Cc1nc(N)ccc1CNC(=O)[C@H](C)NC(=O)[C@H]1C[C@H](Cc2cccc(Cl)c2)CN1.Cl.Cl [1328_4]
5. Cc1nc(N)ccc1CNC(=O)[C@H](C)NC(=O)[C@H]1C[C@H](Cc2cccc(Cl)c2)CN1.Cl.Cl [1328_1]

7.87
7.94
7.95
7.92
8.09

---

Target: MASP-2 CCP2-SP (Homo sapiens (Human))
Assay: MASP-2 co-crystallization, X-ray crystallography and structure analysis (H-bonds, van der Waals contacts)
Settings: Table A1 (H-Bonds); SER 654 O
Counter-ions that a name gives are not always drawn.
Could you please report measured H-bond distance to MASP-2 SER 654 atom O for the items listed next?
One number for each entry.

See these solved cases before continuing.
>  <Compound>
Cc1nc(N)ccc1CNC(=O)[C@H](C)NC(=O)[C@H]1C[C@@H](c2ccccc2)CCN1CCC(=O)O [compound 1411, Trifluoroacetate salt]

>  <Tested Target>
MASP-2 CCP2-SP (Homo sapiens (Human))

>  <H-bond distance to MASP-2 SER 654 atom O>
3.06

$$$$
>  <Compound>
C[C@H](NC(=O)[C@H](N)C1Cc2ccccc2C1)C(=O)NCc1ccc2nc(N)[nH]c2c1 [compound 1059]

>  <Tested Target>
MASP-2 CCP2-SP (Homo sapiens (Human))

>  <H-bond distance to MASP-2 SER 654 atom O>
2.95

$$$$
>  <Compound>
Cc1nc(N)ccc1CNC(=O)[C@H](C)NC(=O)[C@H]1C[C@H](Cc2cccc(-c3ccccc3)c2)CN1 [compound 1406]

>  <Tested Target>
MASP-2 CCP2-SP (Homo sapiens (Human))

>  <H-bond distance to MASP-2 SER 654 atom O>
2.96

$$$$

Could you now consider this next compound?
Data point: C[C@H](NC(=O)[C@H](N)CCc1ccccc1)C(=O)NCc1ccc(C(=N)N)cc1 [compound 1024] ; H-bond distance to MASP-2 SER 654 atom O = 2.86

---

Could you please report measured H-bond distance to MASP-2 GLY 656 atom N for the items listed next?
Biological target: MASP-2 CCP2-SP (Homo sapiens (Human), UniProt O00187)
Assay: MASP-2 co-crystallization, X-ray crystallography and structure analysis (H-bonds, van der Waals contacts)
Conditions: Table A1 (H-Bonds); GLY 656 N
Counter-ions that a name gives are not always drawn.
Numbers only.

See these solved cases before continuing.
>  <Compound>
Cc1nc(N)ccc1CNC(=O)[C@H](C)NC(=O)[C@H]1C[C@@H](Cc2ccccc2)CCN1

>  <Measured Attribute>
H-bond distance to MASP-2 GLY 656 atom N

>  <Assay Value>
3.15

$$$$
>  <Compound>
Cc1nc(N)ccc1CNC(=O)[C@H](C)NC(=O)[C@H]1C[C@H](Cc2ccc3ccccc3c2)CN1

>  <Measured Attribute>
H-bond distance to MASP-2 GLY 656 atom N

>  <Assay Value>
3.23

$$$$

List reported H-bond distance to MASP-2 GLY 656 atom N for each of these compounds:
1. N=C(N)c1ccc(CNC(=O)[C@@H]2CCN2C(=O)[C@H]2Cc3ccccc3CN2)cc1
2. C[C@H](NC(=O)[C@H]1C[C@H](Cc2ccccc2)CN1)C(=O)NCc1ccc(C(=N)N)cc1
3. C[C@H](NC(=O)[C@H]1C[C@@H](c2ccccc2)CCN1)C(=O)NCc1cc(Cl)ccc1O
4. CC(=O)Nc1ccc(CCN[C@H](CCc2ccccc2)C(=O)N[C@@H](C)C(=O)NCc2ccc(N)nc2C)cc1 [compound 1368, Dihydrochloride]

[2.91, 3.05, 3.14, 3.07]
